# Test system: A2780
# Experiment: Cytotoxicity against human A2780 cells after 48 hrs by MTT assay
# Assay type: functional, cell-based
# Test parameters: A2780, 48 h
Measurement type: IC50 (nM)
Numbers only; they are read as nM.

For orientation, consider the following solved cases.
- Molecular string: "C/C=C(\\C)C(=O)N[C@@H](c1ccccc1)[C@@H](O)C(=O)O[C@H]1C[C@@]2(O)[C@@H](OC(=O)c3cccc(N=[N+]=[N-])c3)[C@@H]3[C@]4(OC(C)=O)CO[C@@H]4C[C@H](OC(=O)CNC(=O)OC(C)(C)C)[C@@]3(C)C(=O)[C@H](O)C(=C1C)C2(C)C"
  IC50, nM: 15.5
- Molecular string: "C/C=C(\\C)C(=O)N[C@@H](c1ccccc1)[C@@H](O)C(=O)O[C@H]1C[C@@]2(O)[C@@H](OC(=O)c3cccc(N=[N+]=[N-])c3)[C@@H]3[C@]4(OC(C)=O)CO[C@@H]4C[C@H](OC(=O)OCC)[C@@]3(C)C(=O)[C@H](O)C(=C1C)C2(C)C"
  IC50, nM: 11.2
- Molecular string: "C/C=C(\\C)C(=O)N[C@@H](c1ccccc1)[C@@H](O)C(=O)O[C@H]1C[C@@]2(O)[C@@H](OC(=O)c3cccc(N=[N+]=[N-])c3)[C@@H]3[C@]4(OC(C)=O)CO[C@@H]4C[C@H](OC(=O)CCl)[C@@]3(C)C(=O)[C@H](O)C(=C1C)C2(C)C"
  IC50, nM: 17.2

IC50 reported for this compound "C/C=C(\C)C(=O)N[C@@H](c1ccccc1)[C@@H](O)C(=O)O[C@H]1C[C@@]2(O)[C@@H](OC(=O)c3cccc(N=[N+]=[N-])c3)[C@@H]3[C@]4(OC(C)=O)CO[C@@H]4C[C@H](OC(=O)NC)[C@@]3(C)C(=O)[C@H](O)C(=C1C)C2(C)C" : 7.4
